Tested on: woolly cupgrass (Eriochloa villosa)
Assay: Test C pre/postemergence
Assay type: in vivo
Conditions: Eriochloa villosa, post-emergence; Postemergence, 31 g ai/ha; read-out: Plant response rating (scale of 0 to 100), Cupgrass, Woolly
Kindly supply the reported pest or weed control at 31 g/ha values for the records listed here.
Numbers only, in %.

Solved cases (3 shown):
(Q) Record request: pest or weed control at 31 g/ha value, item `CCOC(=O)c1nc(C2CC2)nc(N)c1F`
(A) 0

(Q) Record request: pest or weed control at 31 g/ha value, item `Nc1nc(C2CC2)nc(C(=O)OCc2ccccc2)c1Cl`
(A) 50

(Q) Record request: pest or weed control at 31 g/ha value, item `CCOC(=O)c1nc(C2CC2)nc(NN)c1Br`
(A) 0

Others:
(Q) Record request: pest or weed control at 31 g/ha value, item `Nc1nc(-c2ccc(Cl)cc2)nc(C(=O)O)c1Cl`
(A) 80

====

Kindly supply the reported Oat, Wild plant response rating values for the records listed here.
Test system: wild oat (Avena fatua)
Assay: Test B postemergence
Format: in vivo
Conditions: 62 g ai/ha, scale 0 to 100 (0 no effect, 100 complete control)
Answers are plain numbers.

// each listed molecule needs a value for Oat, Wild plant response rating
1. CCOC(OCC)c1nc(C2CC2)nc(N)c1Br [Compound 45]
2. Nc1nc(C2CC2)nc(C(=O)O)c1Cl [Compound 135]
3. Nc1nc(-c2ccc(Cl)cc2)nc(C(=O)[O-])c1Cl.[Na+] [Compound 117]
4. CCOC(=O)c1nc(-c2ccc(I)cc2)nc(N)c1Cl [Compound 133]

(A)
0
60
30
40

====

System: johnsongrass (Sorghum halepense)
Assay: Test C pre/postemergence
Assay type: in vivo
Details: Sorghum halepense, post-emergence, Postemergence, 62 g ai/ha; scale 0 to 100 (0 no effect, 100 complete control); read-out: Johnsongrass plant response rating
Kindly supply the reported pest or weed control at 62 g/ha values for the records listed here.
One number for each entry, in %.

(Q) Request body: readout pest or weed control at 62 g/ha, system johnsongrass (Sorghum halepense), query `COC(=O)c1nc(C2CC2)nc(N)c1Br` . Return the value.
(A) 0

(Q) Request body: readout pest or weed control at 62 g/ha, system johnsongrass (Sorghum halepense), query `COC(=O)c1nc(C(C)C)nc(N)c1Br` . Return the value.
(A) 0

(Q) Request body: readout pest or weed control at 62 g/ha, system johnsongrass (Sorghum halepense), query `COC(=O)c1nc(C2CC2)nc(N)c1I` . Return the value.
(A) 0

// each listed compound needs a value for pest or weed control at 62 g/ha
1. CCOC(=O)c1nc(C2CC2)nc(N)c1F
2. Nc1nc(C2CC2)nc(C(=O)O)c1Br

(A)
1: 5; 2: 30

====

Kindly supply the reported pest or weed control at 500 g/ha values for the records listed here.
Test system: velvetleaf (Abutilon theophrasti)
Experiment: Test B pre/postemergence
Format: in vivo
Conditions: Abutilon theophrasti, pre-emergence, Preemergence, 500 g ai/ha; scale 0 to 100 (0 no effect, 100 complete control); read-out: Velvetleaf plant response rating
Answers are plain numbers, in %.

Solved cases (5 shown):
(Q) Record request: pest or weed control at 500 g/ha value, item Nc1nc(C2CC2)nc(C=O)c1F [Compound 24]
(A) 80

(Q) Record request: pest or weed control at 500 g/ha value, item CCOC(=O)c1nc(C2CC2)nc(N)c1F [Compound 30]
(A) 80

(Q) Record request: pest or weed control at 500 g/ha value, item CCOC(=O)c1nc(C2CC2)nc(NN)c1Br [Compound 42]
(A) 70

(Q) Record request: pest or weed control at 500 g/ha value, item COC(=O)c1nc(C2CC2)nc(N)c1Br [Compound 2]
(A) 100

(Q) Record request: pest or weed control at 500 g/ha value, item CNc1nc(C2CC2)nc(C(=O)OC)c1Br [Compound 5]
(A) 90

Please examine the following record next.
(Q) Record request: pest or weed control at 500 g/ha value, item Nc1nc(C2CC2)nc(C(=O)O)c1Br [Compound 8]
(A) 100

====

Tested on: duck salad (Heteranthera limosa)
Assay: Test C flooded paddy test
Assay type: in vivo
Details: Flood, 500 g ai/ha; scale 0 to 100
Measurement type: Plant response rating, Ducksalad
Give bare numbers.

Solved cases (3 shown):
(Q) Record request: Plant response rating, Ducksalad value, item `CCOC(=O)c1nc(C2CC2)nc(N)c1Cl`
(A) 100

(Q) Record request: Plant response rating, Ducksalad value, item `CNc1nc(C2CC2)nc(C(=O)OC)c1Br`
(A) 0

(Q) Record request: Plant response rating, Ducksalad value, item `CCCCOC(=O)c1nc(C2CC2)nc(N)c1Br`
(A) 85

Please examine the following record next.
(Q) Record request: Plant response rating, Ducksalad value, item `CC(C)COC(=O)c1nc(C2CC2)nc(N)c1Br`
(A) 80

====

Tested on: giant foxtail (Setaria faberii)
Experiment: Test C pre/postemergence
Assay type: in vivo
Details: Setaria faberi, post-emergence; Postemergence, 250 g ai/ha; scale 0 to 100; read-out: Plant response rating, Foxtail, Giant
Kindly supply the reported pest or weed control at 250 g/ha values for the records listed here.
Give bare numbers, in %.

Solved cases (4 shown):
(Q) Record request: pest or weed control at 250 g/ha value, item `COC(=O)c1nc(C(C)C)nc(N)c1Br`
(A) 0

(Q) Record request: pest or weed control at 250 g/ha value, item `CCOC(=O)c1nc(C2CC2)nc(N)c1Br`
(A) 80

(Q) Record request: pest or weed control at 250 g/ha value, item `CCOC(=O)c1nc(-c2ccc(Cl)cc2)nc(N)c1Cl`
(A) 50

(Q) Record request: pest or weed control at 250 g/ha value, item `CCOC(=O)c1nc(C2CC2)nc(N)c1F`
(A) 40

Others:
(Q) Record request: pest or weed control at 250 g/ha value, item `Nc1nc(C2CC2)nc(C(=O)OCc2ccccc2)c1Br`
(A) 50

====

Kindly supply the reported Ducksalad plant response rating values for the records listed here.
Test system: ducksalad (Heteranthera limosa)
Experiment: Test E flooded paddy water application
Format: in vivo
Conditions: 250 g ai/ha; Flood; 21 days; scale 0 to 100 (0 no effect, 100 complete control)
Answers are plain numbers.

Solved cases (2 shown):
(Q) Record request: Ducksalad plant response rating value, item Nc1nc(-c2ccc(Cl)cc2)nc(C(=O)OCc2ccccc2)c1Cl [Compound 118]
(A) 100

(Q) Record request: Ducksalad plant response rating value, item COC(=O)c1nc(-c2ccc(C(F)(F)F)cc2)nc(N)c1Cl [Compound 44]
(A) 100

Please examine the following record next.
(Q) Record request: Ducksalad plant response rating value, item COC(=O)c1nc(-c2ccc(Cl)cc2)nc(N)c1Cl [Compound 58]
(A) 100

====

Test system: velvetleaf (Abutilon theophrasti)
Experiment: Test A pre/postemergence
Type: in vivo
Settings: Postemergence, 125 g ai/ha; 0 to 100 scale (0 no effect, 100 complete control)
Measurement type: Plant response rating, Velvetleaf
One number for each entry.

Solved cases (2 shown):
(Q) Record request: Plant response rating, Velvetleaf value, item COC(=O)c1nc(-c2ccc([S+](C)[O-])cc2)nc(N)c1Cl (centres unmarked) [Compound 123]
(A) 0

(Q) Record request: Plant response rating, Velvetleaf value, item Cc1ccc(-c2nc(N)c(Cl)c(C(=O)O)n2)cc1 [Compound 91]
(A) 75

// each listed compound needs a value for Plant response rating, Velvetleaf
1. NC(=O)c1nc(-c2ccc(Br)cc2)nc(N)c1Br [Compound 130]
2. COC(=O)COc1nc(C2CC2)nc(N)c1Cl [Compound 112]
3. COC(=O)COc1nc(-c2ccc(Cl)cc2)nc(N)c1Cl [Compound 119]
4. CCOC(=O)c1nc(-c2ccc(I)cc2)nc(N)c1Cl [Compound 133]

(A)
0
20
0
80

// each listed compound needs a value for Plant response rating, Velvetleaf
1. Nc1nc(C2CC2)nc(C(=O)Oc2ccc(Cl)cc2)c1Cl [Compound 145]
2. CC(C)N.Nc1nc(C2CC2)nc(C(=O)O)c1Cl [Compound 144]

(A)
1: 75; 2: 95

====

System: prickly sida (Sida spinosa)
Assay: Test G pre/postemergence
Format: in vivo
Conditions: Preemergence, 62 g ai/ha, scale 0-100
Kindly supply the reported Plant response rating, Prickly Sida values for the records listed here.
One number for each entry.

(Q) Request body: readout Plant response rating, Prickly Sida, system prickly sida (Sida spinosa), query Nc1nc(C2CC2)nc(C(=O)[O-])c1Cl.[Na+] [Compound 77] . Return the value.
(A) 85

(Q) Request body: readout Plant response rating, Prickly Sida, system prickly sida (Sida spinosa), query CCOC(=O)c1nc(-c2ccc(Cl)cc2)nc(N)c1Cl [Compound 64] . Return the value.
(A) 50

(Q) Request body: readout Plant response rating, Prickly Sida, system prickly sida (Sida spinosa), query COC(=O)c1nc(C2CC2)nc(N)c1Cl [Compound 9] . Return the value.
(A) 95

Please examine the following record next.
(Q) Request body: readout Plant response rating, Prickly Sida, system prickly sida (Sida spinosa), query Nc1nc(C2CC2)nc(C(=O)OCc2ccccc2)c1Br [Compound 22] . Return the value.
(A) 65
